target: HA of A/California/07/2009 (H1N1) (influenza A virus); assay: cell-based or functional assay
Assign Neutralization (IC50) to each entry below.

Requested read-out: Neutralization (IC50). Entry: FBD94 IgG (antibody, V domains shown) VH: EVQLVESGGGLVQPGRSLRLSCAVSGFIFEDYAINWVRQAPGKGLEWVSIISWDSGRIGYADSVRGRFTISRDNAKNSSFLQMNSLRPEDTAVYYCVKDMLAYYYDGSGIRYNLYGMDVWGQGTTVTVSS VL: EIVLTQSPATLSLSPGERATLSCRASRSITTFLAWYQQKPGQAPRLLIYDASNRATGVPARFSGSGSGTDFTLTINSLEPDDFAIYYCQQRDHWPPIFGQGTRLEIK
> 1000 nM

Form field: reported Neutralization (IC50) of GL20 IgG (antibody, V domains shown) VH: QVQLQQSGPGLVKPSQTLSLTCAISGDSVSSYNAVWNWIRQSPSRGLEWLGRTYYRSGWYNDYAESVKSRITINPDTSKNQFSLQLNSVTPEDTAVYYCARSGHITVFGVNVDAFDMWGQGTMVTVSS VL: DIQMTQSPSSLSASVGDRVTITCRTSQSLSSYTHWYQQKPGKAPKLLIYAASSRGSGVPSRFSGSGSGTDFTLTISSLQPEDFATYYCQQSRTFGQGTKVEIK
18.6 nM

Record request: Neutralization (IC50) value, item FY1 IgG (antibody, V domains shown) VH: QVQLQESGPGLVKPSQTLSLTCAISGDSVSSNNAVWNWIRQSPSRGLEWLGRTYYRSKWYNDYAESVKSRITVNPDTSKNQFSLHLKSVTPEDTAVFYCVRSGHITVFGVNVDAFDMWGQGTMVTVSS VL: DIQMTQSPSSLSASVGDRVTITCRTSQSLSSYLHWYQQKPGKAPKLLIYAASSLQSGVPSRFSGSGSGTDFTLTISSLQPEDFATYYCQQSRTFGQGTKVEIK
10.4 nM

Would you kindly share the measured Neutralization (IC50) for FBC39 IgG (antibody, V domains shown) VH: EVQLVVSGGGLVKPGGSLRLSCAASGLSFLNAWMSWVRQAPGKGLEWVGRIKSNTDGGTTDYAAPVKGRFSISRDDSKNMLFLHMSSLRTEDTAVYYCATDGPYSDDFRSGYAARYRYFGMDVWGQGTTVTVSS VL: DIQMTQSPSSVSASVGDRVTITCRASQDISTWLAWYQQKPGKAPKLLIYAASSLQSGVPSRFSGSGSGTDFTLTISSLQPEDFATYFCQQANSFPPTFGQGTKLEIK ?
> 1000 nM

// provenance: patent US20180155413A1
